# Tested on: Klebsiella pneumoniae
# protocolDetails: Antibacterial activity against Klebsiella pneumoniae MTCC 618 after 24 hrs by disk diffusion method
# Format: functional
Attribute: MIC
The response must be a number in µg/mL with no trailing unit.

Sample answers from the record:
CN1c2ccccc2S(=O)(=O)n2nc(C3CCN(S(=O)(=O)c4ccc(Cl)cc4Cl)CC3)nc21	16
O=S(=O)(c1ccc(Cl)cc1Cl)N1CCC(c2nc3n(n2)S(=O)(=O)c2ccccc2N3c2ccccc2)CC1	32
O=S(=O)(c1ccc(F)cc1)N1CCC(c2nc3n(n2)S(=O)(=O)c2ccccc2N3c2ccccc2)CC1	32

Attention now shifts to the item below.
Noted MIC for `CN1c2ccccc2S(=O)(=O)n2nc(C3CCN(S(=O)(=O)c4ccc(F)cc4)CC3)nc21` , tested on Klebsiella pneumoniae: 16

----------
# Test system: Bacillus subtilis
# protocolDetails: Antibacterial activity against Bacillus subtilis MTCC 441 after 24 hrs by disk diffusion method
# Type: functional
MIC: recorded values
Quick reminder: number only, in µg/mL, skip the unit.

Known results for compounds:
O=S(=O)(c1ccccc1)N1CCC(c2nc3n(n2)S(=O)(=O)c2ccccc2N3c2ccccc2)CC1	16
CC(=O)Nc1ccc(S(=O)(=O)N2CCC(c3nc4n(n3)S(=O)(=O)c3ccccc3N4C)CC2)cc1	32
Cc1ccc(S(=O)(=O)N2CCC(c3nc4n(n3)S(=O)(=O)c3ccccc3N4C)CC2)cc1	16
Cc1ccc(S(=O)(=O)Nc2ccc(-c3nc4n(n3)S(=O)(=O)c3ccccc3N4c3ccccc3)cc2)cc1	8
O=S(=O)(Nc1ccc(-c2nc3n(n2)S(=O)(=O)c2ccccc2N3c2ccccc2)cc1)c1ccc(F)cc1	16

Sure, the documented MIC for `CN1c2ccccc2S(=O)(=O)n2nc(C3CCN(S(=O)(=O)c4ccc(Cl)cc4Cl)CC3)nc21` is 16

Per the record, `O=S(=O)(Nc1ccc(-c2nc3n(n2)S(=O)(=O)c2ccccc2N3c2ccccc2)cc1)c1ccccc1` has MIC of 8

The compound identified as `Cc1ccc(S(=O)(=O)N2CCC(c3nc4n(n3)S(=O)(=O)c3ccccc3N4c3ccccc3)CC2)cc1` registered its MIC at 16

----------
The entries below come with measured MIC values attached.
# Test system: Klebsiella pneumoniae
# protocolDetails: Antibacterial activity against Klebsiella pneumoniae MTCC 618 after 24 hrs by disk diffusion method
# Assay type: functional
Quick note: give the figure in µg/mL, leave out the unit.

Cc1ccc(S(=O)(=O)N2CCC(c3nc4n(n3)S(=O)(=O)c3ccccc3N4c3ccccc3)CC2)cc1	16
Cc1ccc(S(=O)(=O)N2CCC(c3nc4n(n3)S(=O)(=O)c3ccccc3N4C)CC2)cc1	64
Cc1ccc(S(=O)(=O)Nc2ccc(-c3nc4n(n3)S(=O)(=O)c3ccccc3N4c3ccccc3)cc2)cc1	32

# MIC (molecule: `O=S(=O)(Nc1ccc(-c2nc3n(n2)S(=O)(=O)c2ccccc2N3c2ccccc2)cc1)c1ccccc1` ) is 32

According to the records, this molecule `CC(=O)Nc1ccc(S(=O)(=O)N2CCC(c3nc4n(n3)S(=O)(=O)c3ccccc3N4C)CC2)cc1` displays MIC of 32

----------
Below, each of the compounds is paired with its reported MIC value.
# System: Klebsiella pneumoniae
# protocolDetails: Antibacterial activity against Klebsiella pneumoniae MTCC 618 after 24 hrs by disk diffusion method
# Type: functional
Your answer is read as µg/mL, so omit the unit and give the number.

Example entries begin here.
O=S(=O)(Nc1ccc(-c2nc3n(n2)S(=O)(=O)c2ccccc2N3c2ccccc2)cc1)c1ccc(Cl)cc1Cl	32
CC(=O)Nc1ccc(S(=O)(=O)Nc2ccc(-c3nc4n(n3)S(=O)(=O)c3ccccc3N4c3ccccc3)cc2)cc1	16
CC(=O)Nc1ccc(S(=O)(=O)N2CCC(c3nc4n(n3)S(=O)(=O)c3ccccc3N4c3ccccc3)CC2)cc1	32
CC(=O)Nc1ccc(S(=O)(=O)Nc2ccc(-c3nc4n(n3)S(=O)(=O)c3ccccc3N4C)cc2)cc1	32
CN1c2ccccc2S(=O)(=O)n2nc(C3CCN(S(=O)(=O)c4ccccc4)CC3)nc21	32

Lab entry: Klebsiella pneumoniae assay, compound `O=S(=O)(Nc1ccc(-c2nc3n(n2)S(=O)(=O)c2ccccc2N3c2ccccc2)cc1)c1ccc(F)cc1` , MIC = 64

The value of MIC recorded for `O=S(=O)(c1ccccc1)N1CCC(c2nc3n(n2)S(=O)(=O)c2ccccc2N3c2ccccc2)CC1` when tested on Klebsiella pneumoniae reads 32

----------
# System: Bacillus subtilis
# protocolDetails: Antibacterial activity against Bacillus subtilis MTCC 441 after 24 hrs by disk diffusion method
# Type: functional
MIC values by entry
Reply with just the number (in µg/mL).

Nc1ccc(S(=O)(=O)Nc2ncccn2)cc1 [SULFADIAZINE]	16
O=S(=O)(c1ccc(Cl)cc1Cl)N1CCC(c2nc3n(n2)S(=O)(=O)c2ccccc2N3c2ccccc2)CC1	16
CC(=O)Nc1ccc(S(=O)(=O)Nc2ccc(-c3nc4n(n3)S(=O)(=O)c3ccccc3N4c3ccccc3)cc2)cc1	8
CC(=O)Nc1ccc(S(=O)(=O)N2CCC(c3nc4n(n3)S(=O)(=O)c3ccccc3N4c3ccccc3)CC2)cc1	16
CN1c2ccccc2S(=O)(=O)n2nc(C3CCN(S(=O)(=O)c4ccccc4)CC3)nc21	16

Entry under test: `O=S(=O)(Nc1ccc(-c2nc3n(n2)S(=O)(=O)c2ccccc2N3c2ccccc2)cc1)c1ccc(Cl)cc1Cl` . Its MIC was 16

Record summary for `O=S(=O)(c1ccc(F)cc1)N1CCC(c2nc3n(n2)S(=O)(=O)c2ccccc2N3c2ccccc2)CC1` : reported MIC = 16

Memo: `CC(=O)Nc1ccc(S(=O)(=O)Nc2ccc(-c3nc4n(n3)S(=O)(=O)c3ccccc3N4C)cc2)cc1` , reported MIC: 16

Sure, the documented MIC for `CN1c2ccccc2S(=O)(=O)n2nc(C3CCN(S(=O)(=O)c4ccc(F)cc4)CC3)nc21` is 32

These measurements were taken from ChEMBL document CHEMBL1139793.
